Measured values drawn from patent US20230416256A1 for this set.

Could you please report measured pIC50 for the items listed next?
test target: recombinant human NF-kappaB-inducing kinase (NIK/MAP3K14) (Homo sapiens)
Sequence (Q99558 whole entry): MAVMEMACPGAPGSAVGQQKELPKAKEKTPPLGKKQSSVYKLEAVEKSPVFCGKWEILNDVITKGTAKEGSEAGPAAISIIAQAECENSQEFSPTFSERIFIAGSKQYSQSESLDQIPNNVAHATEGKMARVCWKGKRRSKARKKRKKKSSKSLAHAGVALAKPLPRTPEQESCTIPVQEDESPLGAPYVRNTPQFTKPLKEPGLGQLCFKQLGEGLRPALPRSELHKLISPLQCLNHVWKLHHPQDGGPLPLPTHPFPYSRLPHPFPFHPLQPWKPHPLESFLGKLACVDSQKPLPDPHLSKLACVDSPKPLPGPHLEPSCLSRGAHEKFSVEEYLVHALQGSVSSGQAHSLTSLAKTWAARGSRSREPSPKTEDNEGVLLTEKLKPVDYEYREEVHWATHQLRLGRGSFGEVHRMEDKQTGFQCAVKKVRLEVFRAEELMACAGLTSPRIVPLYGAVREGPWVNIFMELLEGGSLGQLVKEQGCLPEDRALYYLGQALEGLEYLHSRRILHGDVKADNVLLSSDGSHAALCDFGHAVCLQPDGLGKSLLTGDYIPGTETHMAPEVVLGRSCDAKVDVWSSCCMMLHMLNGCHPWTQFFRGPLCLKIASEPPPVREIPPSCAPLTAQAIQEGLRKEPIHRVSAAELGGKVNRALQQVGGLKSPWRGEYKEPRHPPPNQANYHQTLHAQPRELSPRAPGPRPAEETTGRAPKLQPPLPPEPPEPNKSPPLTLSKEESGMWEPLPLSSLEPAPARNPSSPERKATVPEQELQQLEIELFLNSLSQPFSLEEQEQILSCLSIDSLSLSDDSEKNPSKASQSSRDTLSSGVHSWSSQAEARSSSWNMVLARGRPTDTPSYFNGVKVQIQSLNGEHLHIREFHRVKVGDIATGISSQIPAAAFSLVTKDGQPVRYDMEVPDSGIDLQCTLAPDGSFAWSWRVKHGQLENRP
method: Inhibition of auto-phosphorylation of recombinant human NIK/MAP3K14 activity (AlphaScreen)
conditions used: GST-tagged NIK/MAP3K14 1 nM, 5 μM ATP, 2 h at 25° C.; average of values obtained
pIC50: −log10 of the molar value.

Please give pIC50 for each item listed below.
1. CN1CC[C@@](O)(c2cccc(-c3csc(-c4c[nH]c5ncncc45)n3)c2)C1=O [Example 53]
2. O[C@@]1(c2cccc(-c3csc(-c4c[nH]c5ncc(Cl)c(F)c45)n3)c2)CCn2ccnc21 [Example 97]
3. O[C@@]1(c2cccc(-c3csc(-c4c[nH]c5ncc(C(F)(F)F)cc45)n3)c2)CCn2ccnc21 [Example 25]
4. C[C@](O)(c1cccc(-c2csc(-c3c[nH]c4nccnc34)n2)c1)c1ncc[nH]1 (single isomer, unassigned) [Example 78]
5. CN1C(=O)[C@](O)(c2cccc(-c3csc(-c4c[nH]c5ncccc45)n3)c2)c2ncccc21 [Example 92]
6. CN1C[C@](O)(c2cccc(-c3csc(-c4c[nH]c5nccnc45)n3)c2)C1=O [Example 46]
7. C[C@]1(O)C[C@](O)(c2cccc(-c3csc(-c4c[nH]c5ncccc45)n3)c2)c2ncccc21 (single isomer, unassigned) [Example 105]

≥ 7.00
≥ 7.00
≥ 7.00
< 6.30
≥ 7.00
< 6.30
< 6.30
